molecular target: T1, recombinant human TfR1 (transferrin receptor protein 1) (human, UniProt P02786 89-760); assay: kinetic analysis (Biacore), Table 7; TfR1 species not stated
T1 construct: Recombinant protein in SPR and ELISA; they were assigned to this molecule; also called hTfR1; huTfR1
T1 sequence (P02786 89-760 limits assumed): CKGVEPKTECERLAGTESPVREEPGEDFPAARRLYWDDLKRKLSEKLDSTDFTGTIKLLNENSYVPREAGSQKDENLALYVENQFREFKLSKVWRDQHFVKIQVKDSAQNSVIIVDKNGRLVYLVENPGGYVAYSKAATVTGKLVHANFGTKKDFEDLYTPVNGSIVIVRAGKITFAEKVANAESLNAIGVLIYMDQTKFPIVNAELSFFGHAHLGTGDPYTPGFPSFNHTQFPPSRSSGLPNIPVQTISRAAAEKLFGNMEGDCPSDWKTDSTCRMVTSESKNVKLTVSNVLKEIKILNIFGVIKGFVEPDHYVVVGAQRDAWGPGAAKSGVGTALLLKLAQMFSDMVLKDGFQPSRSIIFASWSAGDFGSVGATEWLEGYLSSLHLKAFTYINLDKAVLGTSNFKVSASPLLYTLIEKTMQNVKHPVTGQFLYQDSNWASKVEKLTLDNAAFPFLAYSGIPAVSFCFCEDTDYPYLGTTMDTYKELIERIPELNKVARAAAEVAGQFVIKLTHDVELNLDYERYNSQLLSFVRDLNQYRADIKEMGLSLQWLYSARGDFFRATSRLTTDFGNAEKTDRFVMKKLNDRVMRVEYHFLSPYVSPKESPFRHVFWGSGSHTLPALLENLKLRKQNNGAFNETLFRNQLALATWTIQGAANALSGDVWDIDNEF
Measured koff of individual entries
Provide only the numeric value, understood in s⁻¹.

{"BINDER": "humanized anti-TfR Fab 5H12 VH5 (C33D)/Vκ4 (Fab, V domains shown, also called 5H12 (VH5-C33D/Vk4)) VH: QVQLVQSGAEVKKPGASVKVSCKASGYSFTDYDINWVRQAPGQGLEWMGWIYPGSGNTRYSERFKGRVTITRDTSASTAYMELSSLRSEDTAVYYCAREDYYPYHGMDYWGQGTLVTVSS VL: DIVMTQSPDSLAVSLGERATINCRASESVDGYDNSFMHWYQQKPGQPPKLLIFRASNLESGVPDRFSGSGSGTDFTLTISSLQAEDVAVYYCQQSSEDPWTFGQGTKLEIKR", "TEST RESULT": 0.000672}
{"BINDER": "humanized anti-TfR Fab 3M12 VH3/Vκ2 (Fab, V domains shown, also called 3M12 (VH3/Vk2)) VH: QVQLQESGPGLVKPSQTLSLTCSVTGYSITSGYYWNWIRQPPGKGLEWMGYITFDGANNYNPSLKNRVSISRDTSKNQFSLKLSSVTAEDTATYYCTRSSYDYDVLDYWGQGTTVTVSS VL: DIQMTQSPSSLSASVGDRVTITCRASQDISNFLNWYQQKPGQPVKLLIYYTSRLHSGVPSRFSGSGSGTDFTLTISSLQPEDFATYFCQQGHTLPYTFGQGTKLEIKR", "TEST RESULT": 0.000104}
{"BINDER": "humanized anti-TfR Fab 3M12 VH4/Vκ2 (Fab, V domains shown, also called 3M12 (VH4/Vk2)) VH: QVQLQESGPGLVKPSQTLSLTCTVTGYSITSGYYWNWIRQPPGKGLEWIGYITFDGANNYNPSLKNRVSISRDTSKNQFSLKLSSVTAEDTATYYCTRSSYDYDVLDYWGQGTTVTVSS VL: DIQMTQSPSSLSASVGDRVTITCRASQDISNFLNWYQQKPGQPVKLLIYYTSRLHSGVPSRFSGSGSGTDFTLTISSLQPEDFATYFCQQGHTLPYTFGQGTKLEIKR", "TEST RESULT": "9.98e-05"}
{"BINDER": "humanized anti-TfR Fab 5H12 VH5 (C33Y)/Vκ3 (Fab, V domains shown, also called 5H12 (VH5-C33Y/Vk3)) VH: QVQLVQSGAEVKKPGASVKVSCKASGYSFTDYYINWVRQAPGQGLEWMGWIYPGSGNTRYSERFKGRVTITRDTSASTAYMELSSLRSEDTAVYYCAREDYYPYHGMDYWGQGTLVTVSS VL: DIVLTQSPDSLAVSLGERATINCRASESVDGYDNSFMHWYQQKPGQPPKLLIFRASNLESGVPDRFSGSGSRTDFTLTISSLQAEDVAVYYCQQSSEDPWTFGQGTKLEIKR", "TEST RESULT": 0.000122}
{"BINDER": "humanized anti-TfR Fab 3M12 VH3/Vκ3 (Fab, V domains shown, also called 3M12 (VH3/Vk3)) VH: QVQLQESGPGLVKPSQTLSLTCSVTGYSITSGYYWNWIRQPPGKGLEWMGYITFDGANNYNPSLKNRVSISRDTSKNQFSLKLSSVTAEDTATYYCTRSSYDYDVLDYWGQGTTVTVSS VL: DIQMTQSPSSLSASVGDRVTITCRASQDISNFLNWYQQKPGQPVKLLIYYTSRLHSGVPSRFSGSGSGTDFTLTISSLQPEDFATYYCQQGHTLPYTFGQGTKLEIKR", "TEST RESULT": "8.34e-05"}
{"BINDER": "humanized anti-TfR Fab 3M12 VH4/Vκ3 (Fab, V domains shown, also called 3M12 (VH4/Vk3); anti-TfR Fab 3M12 VH4/Vk3) VH: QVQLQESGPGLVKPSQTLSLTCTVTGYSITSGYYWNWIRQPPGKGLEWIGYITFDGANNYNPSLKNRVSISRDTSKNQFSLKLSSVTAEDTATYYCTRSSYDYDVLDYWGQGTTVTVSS VL: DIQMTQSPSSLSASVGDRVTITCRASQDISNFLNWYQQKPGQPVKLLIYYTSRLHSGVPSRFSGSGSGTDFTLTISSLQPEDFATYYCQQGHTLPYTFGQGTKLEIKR", "TEST RESULT": "8.61e-05"}
{"BINDER": "humanized anti-TfR Fab 3A4 VH3 (N54T)/Vκ4 (Fab, V domains shown, also called 3A4 (VH3-N54T/Vk4)) VH: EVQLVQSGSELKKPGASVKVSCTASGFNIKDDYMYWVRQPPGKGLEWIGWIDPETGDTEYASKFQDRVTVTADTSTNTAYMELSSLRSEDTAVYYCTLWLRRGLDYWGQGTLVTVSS VL: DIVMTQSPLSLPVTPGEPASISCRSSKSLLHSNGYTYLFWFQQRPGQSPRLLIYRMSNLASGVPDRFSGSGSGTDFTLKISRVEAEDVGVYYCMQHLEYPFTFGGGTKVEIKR", "TEST RESULT": 0.000705}

Input: Could you tell me which koff is on file for humanized anti-TfR Fab 5H12 VH5 (C33Y)/Vκ4 (Fab, V domains shown, also called 5H12 (VH5-C33Y/Vk4)) VH: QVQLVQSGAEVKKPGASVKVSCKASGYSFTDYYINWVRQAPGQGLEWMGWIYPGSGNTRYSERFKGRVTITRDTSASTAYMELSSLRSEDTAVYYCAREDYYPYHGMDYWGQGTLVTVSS VL: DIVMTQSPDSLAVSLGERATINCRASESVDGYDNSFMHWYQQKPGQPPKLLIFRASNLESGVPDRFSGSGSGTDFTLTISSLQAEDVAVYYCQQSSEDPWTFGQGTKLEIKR ?
Output: 0.000117
